- Test system: HCT116 colon cell carcinoma
- assay_remarks: Relative colony forming efficiency after antisense treatment (Table 13)
- Assay type: cell-based, human
- condition_parameters: 0.2 μM antisense oligodeoxyribonucleotide phosphorothioate; HCT116 cells; averages of 2-8 determinations
Strand notation (5' to 3'): a small letter for the sugar, then the base; units joined by * are phosphorothioate-linked, units joined directly phosphodiester-linked; [ ] holds rarer units or linkages, { } end groups; capitals alone tell only the bases. d = 2'-deoxy (DNA)
outcome_measure: Reduced relative colony forming efficiency, expressed as % inhibition, HCT116 (%)
Give the quantity in %, number only.

Qu. Please report Reduced relative colony forming efficiency, expressed as % inhibition, HCT116 for the following sequence: TTAGAAGTCAGCATCCAAGG (DNA, all phosphorothioate, methylation of C not given here) [AS-II-1345-20]
Ans. 65.7

Qu. Please report Reduced relative colony forming efficiency, expressed as % inhibition, HCT116 for the following sequence: GCAAAGGCTACAACACGTTC (antisense; DNA, all phosphorothioate, methylation of C not given here) [AS-II-861-20]
Ans. 74.2

Qu. Please report Reduced relative colony forming efficiency, expressed as % inhibition, HCT116 for the following sequence: TCTGCCTTCTTCTTGACACA (antisense; DNA, all phosphorothioate, methylation of C not given here) [AS-II-798-20]
Ans. 64.46

Qu. Please report Reduced relative colony forming efficiency, expressed as % inhibition, HCT116 for the following sequence: TCAGGCAAGCAAAATCACAG (DNA, all phosphorothioate, methylation of C not given here) [AS-II-1001-20]
Ans. 55.58

Qu. Please report Reduced relative colony forming efficiency, expressed as % inhibition, HCT116 for the following sequence: CCTGTCTTCTATCTGGCACC (antisense; DNA, all phosphorothioate, methylation of C not given here) [AS-II-1989-20]
Ans. 78.47

Qu. Please report Reduced relative colony forming efficiency, expressed as % inhibition, HCT116 for the following sequence: GGCTAAATCGCTCCACCAAG (dG*dG*dC*dT*dA*dA*dA*dT*dC*dG*dC*dT*dC*dC*dA*dC*dC*dA*dA*dG) [AS-II-626-20]
Ans. 70.46

Qu. Please report Reduced relative colony forming efficiency, expressed as % inhibition, HCT116 for the following sequence: TGGGACAGGGTGCACGGGCG (antisense dT*dG*dG*dG*dA*dC*dA*dG*dG*dG*dT*dG*dC*dA*dC*dG*dG*dG*dC*dG) [AS-II-130-20]
Ans. 57.98

Qu. Please report Reduced relative colony forming efficiency, expressed as % inhibition, HCT116 for the following sequence: TCCTTTATCCCACAACACTC (antisense; DNA, all phosphorothioate, methylation of C not given here) [AS-II-2067-20]
Ans. 47.16

Qu. Please report Reduced relative colony forming efficiency, expressed as % inhibition, HCT116 for the following sequence: GTATTGCTTCATTAGAGTGC (DNA, all phosphorothioate, methylation of C not given here) [AS-II-1144-20]
Ans. 54.25

Qu. Please report Reduced relative colony forming efficiency, expressed as % inhibition, HCT116 for the following sequence: TCAGCATCCAAGGTAAAAGA (DNA, all phosphorothioate, methylation of C not given here) [AS-II-1338-20]
Ans. 74.73

Qu. Please report Reduced relative colony forming efficiency, expressed as % inhibition, HCT116 for the following sequence: GCTCCCACATATGAAAACTC (antisense; DNA, all phosphorothioate, methylation of C not given here) [AS-II-2229A-20]
Ans. 93.01

Qu. Please report Reduced relative colony forming efficiency, expressed as % inhibition, HCT116 for the following sequence: CCCAGGACACTACACAAGCC (antisense; DNA, all phosphorothioate, methylation of C not given here) [AS-II-2026-20]
Ans. 81.47

====

I'd be grateful if you could share measured Reduced relative colony forming efficiency, expressed as % inhibition, A549 for these entries.
- Test system: A549 lung cell carcinoma
- assay_remarks: Relative colony forming efficiency after antisense treatment (Table 13)
- Format: cell-based, human
- condition_parameters: 0.2 μM antisense oligodeoxyribonucleotide phosphorothioate; A549 cells; averages of 2-8 determinations
Strand notation (5' to 3'): a small letter for the sugar, then the base; units joined by * are phosphorothioate-linked, units joined directly phosphodiester-linked; [ ] holds rarer units or linkages, { } end groups; capitals alone tell only the bases. d = 2'-deoxy (DNA)
Give the quantity in %, number only.

Qu. Param request: Reduced relative colony forming efficiency, expressed as % inhibition, A549 | system A549 lung cell carcinoma | item CGGCGGCGTGTTCTCCTTGT (dC*dG*dG*dC*dG*dG*dC*dG*dT*dG*dT*dT*dC*dT*dC*dC*dT*dT*dG*dT; antisense) [AS-II-280-20]
Ans. 61.81

Qu. Param request: Reduced relative colony forming efficiency, expressed as % inhibition, A549 | system A549 lung cell carcinoma | item ATGGAAAAAAAAAATCAGCC (DNA, all phosphorothioate, methylation of C not given here) [AS-II-1390-20]
Ans. 88.31

Qu. Param request: Reduced relative colony forming efficiency, expressed as % inhibition, A549 | system A549 lung cell carcinoma | item GGCGACCCCTCACTCCAGCA (antisense dG*dG*dC*dG*dA*dC*dC*dC*dC*dT*dC*dA*dC*dT*dC*dC*dA*dG*dC*dA) [AS-II-114-20]
Ans. 83.51

====

- Test system: T24 bladder cell carcinoma
- assay_remarks: Relative colony forming efficiency after antisense treatment (Table 13)
- Format: cell-based, human
- condition_parameters: 0.2 μM antisense oligodeoxyribonucleotide phosphorothioate; T24 cells; averages of 2-8 determinations
Strand notation (5' to 3'): a small letter for the sugar, then the base; units joined by * are phosphorothioate-linked, units joined directly phosphodiester-linked; [ ] holds rarer units or linkages, { } end groups; capitals alone tell only the bases. d = 2'-deoxy (DNA)
I'd be grateful if you could share measured Reduced relative colony forming efficiency, expressed as % inhibition, T24 for these entries.
Give the quantity in %, number only.

Qu. Please report Reduced relative colony forming efficiency, expressed as % inhibition, T24 for the following sequence: GCACGGGCGACC (antisense dG*dC*dA*dC*dG*dG*dG*dC*dG*dA*dC*dC) [AS-II-127-12]
Ans. 50.63

Qu. Please report Reduced relative colony forming efficiency, expressed as % inhibition, T24 for the following sequence: TGGGACAGGGTGCACGGGCG (antisense dT*dG*dG*dG*dA*dC*dA*dG*dG*dG*dT*dG*dC*dA*dC*dG*dG*dG*dC*dG) [AS-II-130-20]
Ans. 51.94

Qu. Please report Reduced relative colony forming efficiency, expressed as % inhibition, T24 for the following sequence: TCAGAGGGGGCAGAGAATCC (antisense; DNA, all phosphorothioate, methylation of C not given here) [AS-II-2044-20]
Ans. 53.63

Qu. Please report Reduced relative colony forming efficiency, expressed as % inhibition, T24 for the following sequence: GCTATTATCGCCGCCGTGAG (DNA, all phosphorothioate, methylation of C not given here) [AS-II-1773-20]
Ans. 15.19

Qu. Please report Reduced relative colony forming efficiency, expressed as % inhibition, T24 for the following sequence: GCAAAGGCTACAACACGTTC (antisense; DNA, all phosphorothioate, methylation of C not given here) [AS-II-861-20]
Ans. 73.5

Qu. Please report Reduced relative colony forming efficiency, expressed as % inhibition, T24 for the following sequence: ATGGTACTCGATGGGGAAGA (dA*dT*dG*dG*dT*dA*dC*dT*dC*dG*dA*dT*dG*dG*dG*dG*dA*dA*dG*dA) [AS-II-439-20]
Ans. 67.84

Qu. Please report Reduced relative colony forming efficiency, expressed as % inhibition, T24 for the following sequence: AACCGGAAAAGAAAATGCCT (antisense; DNA, all phosphorothioate, methylation of C not given here) [AS-II-890-20]
Ans. 82.07

Qu. Please report Reduced relative colony forming efficiency, expressed as % inhibition, T24 for the following sequence: TTTTAACTGGCTGTGCTGGT (DNA, all phosphorothioate, methylation of C not given here) [AS-II-1666-20]
Ans. 71.71

Qu. Please report Reduced relative colony forming efficiency, expressed as % inhibition, T24 for the following sequence: TCGCTCCACCAAGTTTTCAT (dT*dC*dG*dC*dT*dC*dC*dA*dC*dC*dA*dA*dG*dT*dT*dT*dT*dC*dA*dT; antisense) [AS-II-619-20]
Ans. 86.3

Qu. Please report Reduced relative colony forming efficiency, expressed as % inhibition, T24 for the following sequence: GGAAGATGACAAAGCGGCGG (dG*dG*dA*dA*dG*dA*dT*dG*dA*dC*dA*dA*dA*dG*dC*dG*dG*dC*dG*dG; antisense) [AS-II-425-20]
Ans. 90.37

Qu. Please report Reduced relative colony forming efficiency, expressed as % inhibition, T24 for the following sequence: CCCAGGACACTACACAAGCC (antisense; DNA, all phosphorothioate, methylation of C not given here) [AS-II-2026-20]
Ans. 95.46

Qu. Please report Reduced relative colony forming efficiency, expressed as % inhibition, T24 for the following sequence: GGGCACATCTTCAGTTCATT (DNA, all phosphorothioate, methylation of C not given here) [AS-II-1364-20]
Ans. 66.59
